measuredOn: CDK9/T1 (Homo sapiens, UniProt P50750)
Sequence (P50750 whole entry): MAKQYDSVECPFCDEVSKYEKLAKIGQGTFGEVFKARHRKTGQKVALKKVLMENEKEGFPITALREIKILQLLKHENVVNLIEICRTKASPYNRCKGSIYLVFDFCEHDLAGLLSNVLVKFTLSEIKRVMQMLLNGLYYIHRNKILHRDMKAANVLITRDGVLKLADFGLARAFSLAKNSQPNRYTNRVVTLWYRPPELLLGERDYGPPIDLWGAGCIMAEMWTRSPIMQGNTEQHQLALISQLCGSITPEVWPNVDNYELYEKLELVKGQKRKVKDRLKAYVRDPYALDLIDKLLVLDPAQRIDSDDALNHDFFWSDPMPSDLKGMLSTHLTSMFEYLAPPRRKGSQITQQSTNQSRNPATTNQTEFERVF
Sequence (O60563 whole entry partner): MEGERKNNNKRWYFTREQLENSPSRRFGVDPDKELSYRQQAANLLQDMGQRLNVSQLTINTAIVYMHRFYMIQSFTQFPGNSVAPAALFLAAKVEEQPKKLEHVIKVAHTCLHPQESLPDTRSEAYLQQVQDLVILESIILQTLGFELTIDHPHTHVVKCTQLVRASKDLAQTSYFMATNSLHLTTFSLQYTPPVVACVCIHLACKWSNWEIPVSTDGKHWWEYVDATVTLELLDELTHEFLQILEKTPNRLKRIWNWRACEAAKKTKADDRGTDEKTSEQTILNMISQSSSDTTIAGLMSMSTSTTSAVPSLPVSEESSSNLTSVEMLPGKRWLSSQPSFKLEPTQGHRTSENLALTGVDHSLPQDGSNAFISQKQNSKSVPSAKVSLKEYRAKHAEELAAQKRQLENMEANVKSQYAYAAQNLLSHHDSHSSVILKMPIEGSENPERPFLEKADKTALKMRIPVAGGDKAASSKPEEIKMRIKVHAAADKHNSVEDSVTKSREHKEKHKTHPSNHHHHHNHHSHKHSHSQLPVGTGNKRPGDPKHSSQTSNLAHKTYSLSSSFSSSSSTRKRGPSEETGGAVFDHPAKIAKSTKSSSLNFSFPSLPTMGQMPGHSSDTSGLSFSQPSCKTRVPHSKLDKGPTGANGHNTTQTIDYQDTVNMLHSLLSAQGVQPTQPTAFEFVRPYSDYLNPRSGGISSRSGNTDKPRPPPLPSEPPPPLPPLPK
testDescription: ADP Glo Kinase assay CDK9/T1
Format: biochemical
conditionDetails: CDK9T1; read-out: CDK inhibition, Ki (μM) CDK9T1
Experimental: Eurofins Pharma Discovery or Reaction Biology Corporation Kinase Profiler services were used to measure inhibition of CDKs and other kinases by radiometric assay. Inhibition of CDK4/D1, CDK6/D3 and CDK9/T1 were also determined in-house using ADP Glo Kinase assays (Promega Corporation, Madison, USA). […] Luminescence was measured using an EnVision Multilabel plate reader (PerkinElmer, Buckinghamshire, UK). […]
readoutKind: Ki (µM)

Some compounds with recorded Ki:
{"columns": ["compound", "readoutKind", "recordedValue"],
 "data": [
  ["Cc1cnc(N[C@H]2CC[C@H](N)CC2)nc1-c1cnc2cc(F)c(-c3ccccc3)cn12", "Ki", 0.061],
  ["Cc1cnc(N[C@H]2CC[C@H](N)CC2)nc1-c1cnc2ccc(Nc3cncnc3)cn12", "Ki", 0.006]
]}

P. COc1ccc(-c2ccc3ncc(-c4nc(N[C@H]5CC[C@H](N)CC5)ncc4C)n3c2)cn1
Q. CN(C)S(=O)(=O)c1ccc(-c2ccc3ncc(-c4nc(N[C@H]5CC[C@H](N)CC5)ncc4F)n3c2)cc1
I'm curious whether P or Q has the smaller Ki number. Which is it? Return value: the label identifying the chosen record.
Q
(Q: 0.004 µM, P: 0.17 µM)

a. CS(=O)(=O)N[C@H]1CC[C@H](Nc2ncc(Cl)c(-c3cnc4c(Br)cc(C(F)(F)F)cn34)n2)CC1
b. Cc1cnc(N[C@H]2CC[C@H](N)CC2)nc1-c1cnc2ccc(-c3cccnc3)cn12
Endpoint returns the identifier whose Ki is numerically larger, either a or b . Your answer should be the label of the entry you select.
a

1. N[C@H]1CC[C@H](Nc2ncc(F)c(-c3cnc4ccc(Nc5cccnc5)cn34)n2)CC1
2. Cc1cnc(N[C@H]2CC[C@H](N)CC2)nc1-c1cnc2ccc(Nc3cnccn3)cn12
Endpoint returns the identifier whose Ki is numerically larger, either 1 or 2 . Use the label to indicate which entry you chose.
2
